Experiment: Human HepG2 cell viability assay in 384 well format
Format: toxicity, cell-based
Design: dose 125 nL, time 70.5 hour; concentration not given beside the values
Conditions: HepG2 cells, read-out: Inhibition
Each entry below carries its recorded cytotoxicity at 70.5 h.
Give the quantity in %, number only.

Consider the worked cases shown below.
Molecule | cytotoxicity at 70.5 h (%)
O=C1CO[C@@H]2CN(CC3CCOC3)C[C@H]2N1Cc1cccc(F)c1 (stereo partly specified) | -6.08
CCC(CN1CCOCC1)n1cncc1-c1ccc2c(c1)CCCN2C (stereo unspecified) | -6.78
CNc1ccccc1C(=O)N(C)CCc1ccccc1 | -5.46
CCNC(=O)N1CCC(OC)c2ccccc2N(CC(=O)NC)C(=O)C1 (stereo unspecified) | -2.79
CCn1c(C)nnc1CN(C)C1CCN(Cc2ccccn2)C1 (stereo unspecified) | -2.44
c1ccc(-c2nc(CN3CCCC(Cn4cncn4)C3)cs2)cc1 (stereo unspecified) | -6.56

Request the reported cytotoxicity at 70.5 h associated with CCN(CC(=O)NC(C)C)S(=O)(=O)N1CCCCC1C (stereo unspecified)
-3.14

Request the reported cytotoxicity at 70.5 h associated with COC(=O)N1CCC(NC(=O)c2cc(S(N)(=O)=O)ccc2C)CC1
2.43

Request the reported cytotoxicity at 70.5 h associated with Cn1cccc1CN1CCC2(CC1)CC(Oc1cccnc1)C2
6.62

Request the reported cytotoxicity at 70.5 h associated with COc1ncccc1CN1C[C@H]2CCN(C(C)C)C[C@H]2C1
-4.86

Request the reported cytotoxicity at 70.5 h associated with CC(=O)Nc1ccc2nn(C(C)C)cc2c1
-8.47
